Assay overview: Visual interaction of active ingredient with polyelectrolyte PAA
Assay type: physicochemical
Conditions used: ratio active ingredient:PAA 1:1 (w/w)
Attribute measured: Visual observation category, Active ingredient: PAA

| Compound | Readout value |
| --- | --- |
| O=C(O)COc1ccc(Cl)cc1Cl [2,4D, 2-(2,4-dichlorophenoxy)acetic acid] | G/P |
| O=C(O)CNCP(=O)(O)O [Glyphosate, N-(phosphonomethyl)glycine] | N |
| O=C(O)[C@@H]1CCCN1 [Proline] | N |
| O=[N+]([O-])/N=C1\NCCN1Cc1ccc(Cl)nc1 [Imidacloprid] | N |

###

Assay overview: Humectancy assay
Type: physicochemical
Conditions used: dried at 54° C., then 97% relative humidity at 25° C.; weight after/before x 100
So I've got a bunch of compounds here, and I need their Humectancy values.
Entry rule: numbers only, all in %.

Input: Consider the compound O=C(O)CNCP(=O)(O)O [Glyphosate, N-(phosphonomethyl)glycine] . State its measured Humectancy.
Output: 231.3

Input: Consider the compound O=C(O)COc1ccc(Cl)cc1Cl [2,4D, 2-(2,4-dichlorophenoxy)acetic acid] . State its measured Humectancy.
Output: 212.7

Input: Consider the compound O=[N+]([O-])/N=C1\NCCN1Cc1ccc(Cl)nc1 [Imidacloprid] . State its measured Humectancy.
Output: 108.4

Input: Consider the compound CNC(=N[N+](=O)[O-])NCc1cnc(Cl)s1 [Clothianidin] . State its measured Humectancy.
Output: 120.0

Input: Consider the compound CCO[PH](=O)O [Fosetyl Al] . State its measured Humectancy.
Output: 137.0
